# Target under test: T1, human PD-1 expressed on cells (CHO TREX human PD1 cell line, full-length human PD-1 sequence) (human, UniProt Q15116 21-288)
# T1 construct: Also used for human PD-1 on Jurkat reporter cells, on PathHunter cells and on PHA-stimulated human CD4+ T cells; also called CHO human PD1 cells; CHO human PD-1 cells
# T1 sequence (Q15116 21-288): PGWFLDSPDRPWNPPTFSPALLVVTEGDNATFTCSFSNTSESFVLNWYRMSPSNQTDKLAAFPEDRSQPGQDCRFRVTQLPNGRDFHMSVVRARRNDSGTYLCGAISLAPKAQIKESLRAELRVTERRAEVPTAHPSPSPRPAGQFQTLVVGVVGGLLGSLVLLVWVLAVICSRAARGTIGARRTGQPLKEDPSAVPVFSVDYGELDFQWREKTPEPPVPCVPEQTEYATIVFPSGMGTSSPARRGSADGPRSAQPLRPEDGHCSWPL
# Assay details: worded summary of the screens
Assay endpoint: binding result

A selection of reference data follows.
* 1.88b (VHH) VHH: EVQLVESGGGLVKPGGSLRLSCAASGFTFSDRSMTWMRQAPGKGLEWVSYISSGGGVKFYTDSVKGRFTISRDNAKNSLYLQMNSLRAEDTAVYYCAREAPLRLGESPHDAFDISGQGTMVTVSS | binds
* 1.14a (VHH) VHH: EVQLVESGGGLVQPGRSLRLSCAASGFTFDGYAMHWVRQAPGKGREWVSGISWNSGSMGYAESVKGRFTISRDNAKNSLYLQMNSLRAEDSALYYCVKDKGPGLTGSTADYYGMDVWGQGTTVTVSS | binds
* 1.52a (VHH) VHH: EVQLLESGGGVVRPGGSLRLSCAASGFTFDDYGMSWVRQPPGKGLEWVSGISRNGGSAGYSDSAKDRFTISRDNAKNSLYLQMNSLRADDTAMYYCAREKYSSGWSYDDFDIWGQGTMVTVSS | binds
* 1.9a (VHH) VHH: EVQLVESGGGCVQPGRSLRISCAASGFTFDDYAMHWVRQAPGKGREWVSGISWNGGSMGYAESVKGRFTISRDNAKNSLYLQMNSLRAEDSALYYCVKDKGPGLIGSTADYYGMDVWGQGTTVTVSS | binds
* 1.89a (VHH) VHH: EVQLVESGGGVVRPGGSLRLSCAASGFTFDDYAESWVRQAPGKGLEWVSGITWNGGSTGYADSVKDRFTISRDNAKNSLYLQMNSLRAEDTALYYCVRDKYSYAWSYDGFDIWGQGTMVTVSS | binds
* 1.87a (VHH) VHH: EVQLVESGGGVVRPGGSLRLSCAASGFTFDDYALSWVRQAPGKGLEWVSGITWNGGSTGYADSVKDRFTISRDNAKNSLYLQMNSLRAEDTALYYCVRDKYSYAWSYDGFDIWGQGTMVTVSS | binds
* 1.64a (VHH) VHH: EVQLVESGGGVVRPGGSLRLSCAASGFTFDDYAFSWVRQAPGKGLEWVSGITWNGGSTGYADSVKGRFTISRDNAKNSLYLQMNSLRAEDTALYYCVRDKYSYAWSYDGFDIWGQGTMVTVSS | binds
* 1.96b (VHH) VHH: EVQLVESGGGLVKPGGSLRLSCAASGFTFSDTSMTWMRQAPGKGLEWVSYISSGGGVKFYADSVKGRFTISRDNAKNSLYLQMNSLRAEDTAVYYCAREAPLRLGESPHDAFDISGQGTMVTVSS | binds

Quick note, binding result for 1.17a (VHH) VHH: EVQLLESGGGLVQPGGSLRLSCAASGFTFDDYAMHWVRQAPGKGLEWVSGISWNSGSMGYAASVKDRFTISRDNAKNSLYLQMNSLTTEDTALYYCVKDKGPGLIGSTADYHGLDVWGQGTTVTVSS landed at binds

Quick note, binding result for 1.81a (VHH) VHH: EVQLVESGGGVVRPGGSLRLSCAASGFTFDDYAMSWVRQAPGKGLEWVSGITWNRGSTGYADSVKDRFTISRDNAKNSLYLQMNSLRAEDTALYYCVRDKYSYAWSYDDFDIWGQGTMVTVSS landed at binds

Quick note, binding result for 1.56a (VHH) VHH: QVQLVESGGGVVRLGGSLRLSCAASGFSFVDYGMSWVRQAPGQGLEWVSGISRNGGSTGYADSVKDRFTISRDNAKNTLYLQMNSLRAEDTALYYCARDPYSSGWSYDSFDIWGQGTMVTVSS landed at binds

Quick note, binding result for 1.4a (VHH) VHH: EVQLLESGGGLVQPGRSLRLSCAASGFTFADYAMHWVRQAPGKGREWVSGISWNGGSMGYAESVKGRFTISRDNAKNSLYLQMNSLRAEDSALYYCVKDKGPGLTGTTADYYGMDVWGQGTTVTVSS landed at binds

Quick note, binding result for 1.68b (VHH) VHH: QVQLVESGGGLVKPGGSLRLSCAASGFTFGDNSMTWMRQAPGKGLEWVSYISSGGGVIFYADSVKGRFTISRDNAKNSLYLQMNSLRADDTAVYYCAREAPLRLGESPHDAFDISGRGTTVTVSS landed at binds

Quick note, binding result for 1.91b (VHH) VHH: EVQLVESGGGLVKPGGSLRLSCAASGFTFSDQSMTWMRQAPGKGLEWVSYISSGGGVKFYADSVKGRFTISRDNAKNSLYLQMNSLRAEDTAVYYCAREAPLRLGESPHDAFDISGQGTMVTVSS landed at binds

Quick note, binding result for 1.40b (VHH) VHH: EVQLVESGGGLVKPGGSLRLSCAASGFTFSDSSMSWIRQAPGRGLEWISYISSGGGIIYYTDSVKGRFTISRDNAKNSLYLQMNSLRVEDTAVYYCAKEAPLRLGESPHDAFDIWGHGTMVTVSS landed at binds
